System: Bacillus subtilis
Assay Protocol: Antibacterial activity against Bacillus subtilis after 24 hrs by broth dilution technique
Type: functional
Metric Name: MIC (µg/mL)
Write down the numeric answer in µg/mL and omit the unit.

Sample records with MIC:
Oc1ccccc1/N=C/c1c[nH]c2ccccc12; 18.4
O=C(O)CCC(/N=C/c1c[nH]c2ccccc12)C(=O)O (configuration not stated); 48.2
CC(C)C(/N=C/c1c[nH]c2ccccc12)C(=O)O (configuration not stated); 42.5
O=C(O)C(Cc1c[nH]cn1)/N=C/c1c[nH]c2ccccc12 (configuration not stated); 35.1
O=S(=O)(O)c1cc(O)c(/N=C/c2c[nH]c3ccccc23)c2ccccc12; 15.5
O=C(O)CC(/N=C/c1c[nH]c2ccccc12)C(=O)O (configuration not stated); 11.3

Let us examine a further case.
Which MIC value is on record for CC(C)CC(/N=C/c1c[nH]c2ccccc12)C(=O)O (configuration not stated) ?
12.1

The origin of these recorded values is ChEMBL document CHEMBL1149775.
